# Tested on: K4 kissing-loop RNA reporter;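 further: bound reporter read as fluorescence of individual clusters on recovered sequencing chips by microscopy, with normalized cluster intensities fitted with a binding model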
# Assay Info: apparent KD of K4 kissing-loop reporter; higher = weaker reporter binding
# Experimental Conditions: Eterna round: R107; input ligand: FMN 200 uM
# apparent KD of K4 kissing-loop reporter >= 200 nM gives True, anything below gives False

GGAAGACACCUGAGUGAUGUUCGGGUGUGCCGAGGACCGGUACGGCCGCCACUCGGGUGGUACAGUUACUGAUUGGACCGCUAUC [Arbirace] ... False
UCGGCGUACGGGCGGGUAGUGAUGUUGCUCCGAGGACCGGUACGGCCGCCACUCGAGGUACCAGUUCAUAGAACCUGGCACAUCA [theeternabot_exclusion_KL_Trp_A_23] ... True
UGAUAGGACAGAAGGAGCGGAAGUGAUGUUUCCAAAUGGAUAAGGUGUCAAAAGACACCCUUCCAGGUAGGUCGCUGUCCUAUCU [ArgBX 14 #Palindromic #SwitchBubble #StaticStem] ... False
UGAUACCAGGCGGCCGCCACUCCCGCAGGUCAAAGACCUGCGAAGCUGGUUCUCCAGUGAUGUUGGAGGACCGGGCCUGGUAUCU [FiskerMod 26 - Jieux - Exclusion - Tryptophan B] ... False
AAUGCGCAGGGAAGGAGCGCCGUCCAGUGAUGUUGGAGUUAAAUACCAGUGAUGUUGGUUAGGCAGGUAGGUCGCCCUAAAGCGC [Exclusion Arginine B GF 1] ... False
UGUUUUUACUGAAGGAGCGGCAAUUGAUACGUAGAUAUAGUGAUGUUAUAUAAGAUAGAGAGCCAGGUAGGUCGCAGAGUGUAUC [ExArgB.aB] ... True
UUUAGGAGCGGUGUUGAUUAGGGAGCGGAAGGAGCGCCGAUUAUGGCAGGUAGGUCGCCGGAAUGUAGUGAUGUUGCAUAGAGGG [ExArgA.V] ... True
AGUCCGCUCCAAGGAUAUAGUCCGGCUGCGCGUCAGUGAUGUUGAAGAAGUAUCGCGUCUCUAUAGCUAGAAGGUGGCGCAAUUG [theeternabot_sameState_KL_FMN_B_20] ... True
